Structures can show the parent of a compound that is named as a salt.
Quick record of MIC values for S. aureus ATCC 29213.
Quick note: give the figure in µg/mL, leave out the unit.

N=C(N)SCc1cnccc1SC1=C(C(=O)O)N2C(=O)[C@@H](NC(=O)/C(=N\OC3CCCC3)c3csc(N)n3)[C@H]2SC1 [Cmpd 8, trifluoroacetic acid salt]
1
CC(N)CSCc1cnccc1SC1=C(C(=O)O)N2C(=O)[C@@H](NC(=O)/C(=N\O)c3nc(N)sc3Cl)[C@H]2SC1 (some centres unmarked) [Cmpd 36, trifluoroacetic acid salt]
0.5
Nc1nc(/C(=N/O)C(=O)N[C@@H]2C(=O)N3C(C(=O)O)=C(Sc4ccncc4CSCC(N)CO)CS[C@H]23)c(Cl)s1 (some centres unmarked) [Cmpd 56, trifluoroacetic acid salt]
0.5
CN(C)C(=O)CNCCSCc1cnccc1SC1=C(C(=O)O)N2C(=O)[C@@H](NC(=O)/C(=N\O)c3nc(N)sc3Cl)[C@H]2SC1 [Cmpd 61, trifluoroacetic acid salt]
1
NCCSCc1cnccc1SC1=C(C(=O)O)N2C(=O)[C@@H](NC(=O)Cc3ccccc3)[C@H]2SC1.O=C(O)C(F)(F)F [Cmpd 9]
0.25
CC(N)COCc1cnccc1SC1=C(C(=O)O)N2C(=O)[C@@H](NC(=O)/C(=N\O)c3nc(N)sc3Cl)[C@H]2SC1 (some centres unmarked) [Cmpd 49, trifluoroacetic acid salt]
0.25
CNCC(=O)NCCSCc1cnccc1SC1=C(C(=O)O)N2C(=O)[C@@H](NC(=O)/C(=N\O)c3csc(N)n3)[C@H]2SC1 [Cmpd 18, trifluoroacetic acid salt]
1
CNCCSCc1cnccc1SC1=C(C(=O)O)N2C(=O)[C@@H](NC(=O)/C(=N\O)c3nc(N)sc3Cl)[C@H]2SC1 [Cmpd 41, trifluoroacetic acid salt]
0.13

stdin: What is its MIC for S. aureus ATCC 29213? Entry: NCC(=O)NCCSCc1cnccc1SC1=C(C(=O)O)N2C(=O)[C@@H](NC(=O)/C(=N\O)c3nc(N)sc3Cl)[C@H]2SC1 [Cmpd 29, trifluoroacetic acid salt]
stdout: 0.25

stdin: Try this molecule too: NCCSCc1cnccc1SC1=C(C(=O)O)N2C(=O)[C@@H](NC(=O)/C(=N\O)c3nc(N)sc3Cl)[C@H]2SC1 [Cmpd 16, trifluoroacetic acid salt]
stdout: 0.25

stdin: Proceed to CNCC(=O)NCCSCc1cnccc1SC1=C(C(=O)O)N2C(=O)[C@@H](NC(=O)/C(=N\O)c3nc(N)sc3Cl)[C@H]2SC1 [Cmpd 43, trifluoroacetic acid salt]
stdout: 0.5

---

Heads up, these compounds all have MIC values measured for S. aureus Col8A(Meth^S)(lac^-).
Structures can show the parent of a compound that is named as a salt.

Example results:
Nc1nc(/C(=N/O)C(=O)N[C@@H]2C(=O)N3C(C(=O)O)=C(Sc4ccncc4CSCCNC=O)CS[C@H]23)c(Cl)s1 [Cmpd 63, trifluoroacetic acid salt]
0.13 µg/mL
NCCCCCOCc1cnccc1SC1=C(C(=O)O)N2C(=O)[C@@H](NC(=O)/C(=N\O)c3nc(N)sc3Cl)[C@H]2SC1 [Cmpd 44, trifluoroacetic acid salt]
0.5 µg/mL
CNCCNCCSCc1nnsc1SC1=C(C(=O)O)N2C(=O)[C@@H](NC(=O)/C(=N\OCCF)c3nc(N)sc3Cl)[C@H]2SC1.O=C(O)C(F)(F)F
0.25 µg/mL

stdin: // returns reported MIC for input NCCOCc1cnccc1SC1=C(C(=O)O)N2C(=O)[C@@H](NC(=O)/C(=N\O)c3nc(N)sc3Cl)[C@H]2SC1 [Cmpd 40, trifluoroacetic acid salt]
stdout: 0.5 µg/mL

stdin: Here is the next compound: NCCS(=O)(=O)Cc1cnccc1SC1=C(C(=O)O)N2C(=O)[C@@H](NC(=O)/C(=N\O)c3nc(N)sc3Cl)[C@H]2SC1 [Cmpd 45, trifluoroacetic acid salt]
stdout: 1 µg/mL

stdin: Now the same for N=CNCCCSCc1cnccc1SC1=C(C(=O)O)N2C(=O)[C@@H](NC(=O)/C(=N\O)c3nc(N)sc3Cl)[C@H]2SC1 [Cmpd 34, trifluoroacetic acid salt]
stdout: ≤ 0.06 µg/mL

stdin: Next: C[C@@H](O)[C@H]1C(=O)N2C(C(=O)O)=C(SCCN=CN)C[C@H]12 [Imipenem, imipenem, reference compound]
stdout: ≤ 0.25 µg/mL

stdin: Can you check Nc1nc(/C(=N/O)C(=O)N[C@@H]2C(=O)N3C(C(=O)O)=C(Sc4ccncc4CSC4CCNC4)CS[C@H]23)cs1 (stereo partly shown) [Cmpd 17, trifluoroacetic acid salt] next?
stdout: 0.5 µg/mL

stdin: // same read-out, input: NCCCSCc1cnccc1SC1=C(C(=O)O)N2C(=O)[C@@H](NC(=O)/C(=N\O)c3nc(N)sc3Cl)[C@H]2SC1 [Cmpd 27, trifluoroacetic acid salt]
stdout: 0.13 µg/mL

stdin: Also NCCCCOCc1cnccc1SC1=C(C(=O)O)N2C(=O)[C@@H](NC(=O)/C(=N\O)c3nc(N)sc3Cl)[C@H]2SC1 [Cmpd 46, trifluoroacetic acid salt] ?
stdout: 0.5 µg/mL

stdin: What do you have for NCCCOCc1cnccc1SC1=C(C(=O)O)N2C(=O)[C@@H](NC(=O)/C(=N\O)c3nc(N)sc3Cl)[C@H]2SC1 [Cmpd 47, trifluoroacetic acid salt] ?
stdout: 0.5 µg/mL
